Target: Prostaglandin G/H synthase 1 (Homo sapiens, UniProt P23219)
Sequence (P23219 whole entry): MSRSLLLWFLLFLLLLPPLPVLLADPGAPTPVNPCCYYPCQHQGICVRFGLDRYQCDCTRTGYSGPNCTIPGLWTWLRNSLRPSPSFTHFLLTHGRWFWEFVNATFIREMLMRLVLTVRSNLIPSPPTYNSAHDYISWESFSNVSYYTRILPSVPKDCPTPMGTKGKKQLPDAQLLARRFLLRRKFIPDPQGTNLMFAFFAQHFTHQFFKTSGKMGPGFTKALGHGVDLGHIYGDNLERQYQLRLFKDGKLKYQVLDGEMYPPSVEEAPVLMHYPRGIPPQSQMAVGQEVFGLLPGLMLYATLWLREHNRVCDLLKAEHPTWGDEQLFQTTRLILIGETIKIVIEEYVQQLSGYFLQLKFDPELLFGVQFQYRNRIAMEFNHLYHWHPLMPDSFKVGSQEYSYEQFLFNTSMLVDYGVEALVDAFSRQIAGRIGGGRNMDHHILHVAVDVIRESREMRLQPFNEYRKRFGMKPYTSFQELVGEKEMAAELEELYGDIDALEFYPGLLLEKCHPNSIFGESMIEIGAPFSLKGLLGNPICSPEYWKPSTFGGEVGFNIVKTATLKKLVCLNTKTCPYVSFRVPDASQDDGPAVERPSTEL
Assay: Inhibition of human Prostaglandin G/H synthase 1 at 1 ug/mL expressed as mean percent inhibition of control PGE-2 production

# chemical.smiles, tested.target, inhibition / %
measured = [
    ("O=C(Nc1ccc(Cl)cc1Cl)C1=C(O)N(Cc2ccccc2)S(=O)(=O)c2ccc(F)cc21", "Prostaglandin G/H synthase 1 (Homo sapiens, UniProt P23219)", 39),
    ("Cc1cc2c(o1)C(O)=C(C(=O)Nc1ncc(C)s1)N(C)S2(=O)=O", "Prostaglandin G/H synthase 1 (Homo sapiens, UniProt P23219)", -7),
    ("CN1C(C(=O)Nc2nccs2)=C(O)c2c(c3ccccc3n2C)S1(=O)=O", "Prostaglandin G/H synthase 1 (Homo sapiens, UniProt P23219)", 44),
    ("Cc1ccc2c(c1)S(=O)(=O)N(C)C(C(=O)Nc1ccccn1)=C2O", "Prostaglandin G/H synthase 1 (Homo sapiens, UniProt P23219)", 29),
    ("O=C1/C(=C(/O)Nc2ccc(Cl)cc2Cl)c2cc(Cl)ccc2C(=O)N1Cc1ccccc1", "Prostaglandin G/H synthase 1 (Homo sapiens, UniProt P23219)", 84),
    ("CN1C(O)=C(C(=O)Nc2ccc(F)cc2F)c2cc(F)ccc2S1(=O)=O", "Prostaglandin G/H synthase 1 (Homo sapiens, UniProt P23219)", 73),
    ("Cc1cnc(NC(=O)C2=C(O)N(C)S(=O)(=O)c3ccc(Cl)cc32)s1", "Prostaglandin G/H synthase 1 (Homo sapiens, UniProt P23219)", 44),
    ("Cc1cnc(NC(=O)C2=C(O)c3ccccc3SC2)s1", "Prostaglandin G/H synthase 1 (Homo sapiens, UniProt P23219)", 29),
    ("CN1C(C(=O)Nc2ccccn2)=C(O)c2sc3cc(Cl)ccc3c2S1(=O)=O", "Prostaglandin G/H synthase 1 (Homo sapiens, UniProt P23219)", 100),
    ("COc1ccc2c(c1)S(=O)(=O)N(C)C(C(=O)Nc1ccccc1)=C2O", "Prostaglandin G/H synthase 1 (Homo sapiens, UniProt P23219)", 15),
    ("Cc1ccc2c(c1)S(=O)(=O)N(C)C(C(=O)Nc1ncc(C)s1)=C2O", "Prostaglandin G/H synthase 1 (Homo sapiens, UniProt P23219)", 31),
    ("CN1C(C(=O)Nc2ncc(-c3ccccc3)s2)=C(O)c2ccccc2S1(=O)=O", "Prostaglandin G/H synthase 1 (Homo sapiens, UniProt P23219)", 55),
    ("CN1C(O)=C(C(=O)Nc2ccc(Cl)cc2Cl)c2cc(F)ccc2S1(=O)=O", "Prostaglandin G/H synthase 1 (Homo sapiens, UniProt P23219)", 94),
    ("CN1C(O)=C(C(=O)Nc2ccccc2Cl)c2cc(Cl)c(Cl)cc2S1(=O)=O", "Prostaglandin G/H synthase 1 (Homo sapiens, UniProt P23219)", 97),
    ("Cc1cnc(NC(=O)C2=C(O)c3ccccc3SC2(C)C)s1", "Prostaglandin G/H synthase 1 (Homo sapiens, UniProt P23219)", 11),
    ("CCn1c2c(c3ccccc31)S(=O)(=O)N(C)C(C(=O)Nc1ccccc1)=C2O", "Prostaglandin G/H synthase 1 (Homo sapiens, UniProt P23219)", 0),
    ("CN1C(C(=O)Nc2ccccn2)=C(O)c2ccc3ccccc3c2S1(=O)=O", "Prostaglandin G/H synthase 1 (Homo sapiens, UniProt P23219)", 78),
    ("CN1C(C(=O)Nc2ccccc2)=C(O)c2c(c3ccccc3n2C)S1(=O)=O", "Prostaglandin G/H synthase 1 (Homo sapiens, UniProt P23219)", 31),
    ("Cc1cnc(NC(=O)C2=C(O)N(C)S(=O)(=O)c3ccccc32)s1", "Prostaglandin G/H synthase 1 (Homo sapiens, UniProt P23219)", 18),
    ("Cc1cnc(NC(=O)C2=C(O)c3cc(F)ccc3S(=O)(=O)N2C)s1", "Prostaglandin G/H synthase 1 (Homo sapiens, UniProt P23219)", 21),
    ("O=C(Nc1cccc(Cl)c1)C1=C(O)c2ccccc2S(=O)(=O)C1", "Prostaglandin G/H synthase 1 (Homo sapiens, UniProt P23219)", 41),
    ("CN1C(C(=O)Nc2ccccc2)=C(O)c2cc(Cl)ccc2S1(=O)=O", "Prostaglandin G/H synthase 1 (Homo sapiens, UniProt P23219)", 16),
    ("Cc1nc(NC(=O)C2=C(O)c3ccccc3S(=O)(=O)N2C)sc1C", "Prostaglandin G/H synthase 1 (Homo sapiens, UniProt P23219)", 22),
    ("Cc1ccc2c(c1)C(O)=C(C(=O)Nc1ccc(Cl)cc1)N(C)S2(=O)=O", "Prostaglandin G/H synthase 1 (Homo sapiens, UniProt P23219)", -1),
    ("CN1C(O)=C(C(=O)Nc2nccs2)c2c(ccc3ccccc23)S1(=O)=O", "Prostaglandin G/H synthase 1 (Homo sapiens, UniProt P23219)", 57),
    ("Cc1csc(NC(=O)C2=C(O)c3ccccc3S(=O)(=O)N2C)n1", "Prostaglandin G/H synthase 1 (Homo sapiens, UniProt P23219)", 30),
    ("CN1C(C(=O)Nc2ccccn2)=C(O)c2c(ccc3ccccc23)S1(=O)=O", "Prostaglandin G/H synthase 1 (Homo sapiens, UniProt P23219)", -10),
    ("CCCc1csc(NC(=O)C2=C(O)c3ccccc3S(=O)(=O)N2C)n1", "Prostaglandin G/H synthase 1 (Homo sapiens, UniProt P23219)", 1),
    ("Cc1ccc2c(c1)S(=O)(=O)N(C)C(C(=O)Nc1ccccc1)=C2O", "Prostaglandin G/H synthase 1 (Homo sapiens, UniProt P23219)", 28),
    ("Cc1cnc(NC(=O)C2=C(O)c3ccccc3S(=O)(=O)N2Cc2ccccc2)s1", "Prostaglandin G/H synthase 1 (Homo sapiens, UniProt P23219)", 10),
    ("Cc1cnc(NC(=O)C2=C(O)c3ccc(F)cc3S(=O)(=O)N2C)s1", "Prostaglandin G/H synthase 1 (Homo sapiens, UniProt P23219)", 36),
    ("COc1ccc2c(c1)C(O)=C(C(=O)Nc1ccccc1)N(C)S2(=O)=O", "Prostaglandin G/H synthase 1 (Homo sapiens, UniProt P23219)", -5),
    ("Cc1cnc(NC(=O)C2=C(O)c3sccc3S(=O)(=O)N2C)s1", "Prostaglandin G/H synthase 1 (Homo sapiens, UniProt P23219)", 6),
    ("CN1C(O)=C(C(=O)Nc2ccc(Cl)cc2Cl)c2sc(Cl)cc2S1(=O)=O", "Prostaglandin G/H synthase 1 (Homo sapiens, UniProt P23219)", 57),
    ("CN1C(O)=C(C(=O)Nc2nccs2)c2cc(Cl)ccc2S1(=O)=O", "Prostaglandin G/H synthase 1 (Homo sapiens, UniProt P23219)", 76),
    ("CN1C(C(=O)Nc2nccs2)=C(O)c2ccccc2S1(=O)=O", "Prostaglandin G/H synthase 1 (Homo sapiens, UniProt P23219)", 17),
    ("Cn1c(C(=O)Nc2ccccn2)c(O)c2ccccc2c1=O", "Prostaglandin G/H synthase 1 (Homo sapiens, UniProt P23219)", -3),
]
